Reported pest or weed control at 10 g/ha by item:
System: Venturia inaequalis
Experiment: Venturia test (apple)/protective
Conditions: 288 h, read-out: Efficacy, apple, protective, 10 g/ha, 12 days after inoculation

// worked examples, pest or weed control at 10 g/ha included
| test smiles | pest or weed control at 10 g/ha |
| --- | --- |
| CON=C(C1=NOCCN1)c1ccccc1Oc1ncnc(Sc2ccccc2)c1F | ≥ 90% |
| CON=C(C1=NOCCN1)c1ccccc1Oc1ncnc(Oc2cccc(C)c2Cl)c1F | ≥ 90% |
| CON=C(C1=NOCCN1)c1ccccc1Oc1ncnc(Oc2cccc(Cl)c2)c1F | ≥ 90% |
| C=Cc1ccccc1Oc1ncnc(Oc2ccccc2C(=NOC)C2=NOCCN2)c1F | ≥ 90% |
| CON=C(C1=NOCCN1)c1ccccc1Oc1ncnc(Oc2cccc(Cl)c2C)c1F | ≥ 90% |

Fill in reported pest or weed control at 10 g/ha for this entry: CON=C(C1=NOCCN1)c1ccccc1Oc1ncnc(Oc2ccc(C)cc2)c1F
≥ 90%

Fill in reported pest or weed control at 10 g/ha for this entry: CON=C(C1=NOCCN1)c1ccccc1Oc1ncnc(Oc2cccnc2Br)c1F
≥ 90%

Fill in reported pest or weed control at 10 g/ha for this entry: CON=C(C1=NOCCN1)c1ccccc1Oc1ncnc(Oc2cccc3c2OC(C)(C)C3)c1F
≥ 90%

Fill in reported pest or weed control at 10 g/ha for this entry: CON=C(C1=NOCCN1)c1ccccc1Oc1ncnc(Oc2cccc(C)c2)c1F
≥ 90%

Fill in reported pest or weed control at 10 g/ha for this entry: CON=C(C1=NOCCN1)c1ccccc1Oc1ncnc(Oc2ccccc2C(C)C)c1F
≥ 90%

Fill in reported pest or weed control at 10 g/ha for this entry: CON=C(C1=NOCCN1)c1ccccc1Oc1ncnc(Oc2ccccc2Cl)c1F
≥ 90%

Fill in reported pest or weed control at 10 g/ha for this entry: CON=C(C1=NOCCN1)c1ccccc1Oc1ncnc(Oc2ccccc2C(C)(C)C)c1F
≥ 90%

###

Assay: logP by HPLC (EEC Directive 79/831 Annex V. A8, gradient method, acetonitrile/0.1% aqueous phosphoric acid)
Format: physicochemical
Label n if chromatographic logP falls below 3; label y in every other case.

Study these solved cases before continuing.
| compound | label value |
| --- | --- |
| CON=C(C1=NOCCN1)c1ccccc1Oc1ncnc(Oc2cccc(Cl)c2)c1F | y |
| CON=C(C1=NOCCN1)c1ccccc1Oc1ncnc(Oc2cccc(OC)c2)c1F | n |
| CON=C(C1=NOCCN1)c1ccccc1Oc1ncnc(Oc2ccccc2C#N)c1F | n |
| CON=C(C1=NOCCN1)c1ccccc1Oc1ncnc(Oc2cccnc2Br)c1F | n |
| CON=C(C1=NOCCN1)c1ccccc1Oc1ncnc(Oc2ccc(OC(F)(F)F)cc2C)c1F | y |
| CON=C(C1=NOCCN1)c1ccccc1Oc1ncnc(Oc2ccc(SC(F)(F)F)cc2)c1F | y |
| CON=C(C1=NOCCN1)c1ccccc1Oc1ncnc(SC2CCCCC2)c1F | y |
| CON=C(C1=NOCCN1)c1ccccc1Oc1ncnc(Oc2cccc(Cl)c2C)c1F | y |
| CON=C(C1=NOCCN1)c1ccccc1Oc1ncnc(Oc2ccc(C(F)(F)F)cc2Cl)c1F | y |
| CON=C(C1=NOCCN1)c1ccccc1Oc1ncnc(Oc2cccc(C(C)(C)C)c2)c1F | y |

Hello, I need to know if CON=C(C)c1ccc(Oc2ncnc(Oc3ccccc3C(=NOC)C3=NOCCN3)c2F)c(C)c1 has measured chromatographic logP not below 3. Thanks!
y

Hello, I need to know if CON=C(C1=NOCCN1)c1ccccc1Oc1ncnc(Oc2cccc(C)c2Cl)c1F has measured chromatographic logP not below 3. Thanks!
y

Hello, I need to know if CON=C(C1=NOCCN1)c1ccccc1Oc1ncnc(Oc2cccc(C)c2)c1F has measured chromatographic logP not below 3. Thanks!
y

Hello, I need to know if CON=C(C1=NOCCN1)c1ccccc1Oc1ncnc(Oc2ccccc2)c1F has measured chromatographic logP not below 3. Thanks!
n

Hello, I need to know if C=Cc1ccccc1Oc1ncnc(Oc2ccccc2C(=NOC)C2=NOCCN2)c1F has measured chromatographic logP not below 3. Thanks!
y

Hello, I need to know if CON=C(C1=NOCCN1)c1ccccc1Oc1ncnc(Oc2cc(C)ccc2Cl)c1F has measured chromatographic logP not below 3. Thanks!
y

Hello, I need to know if CON=C(C1=NOCCN1)c1ccccc1Oc1ncnc(Sc2ccc(Br)cc2)c1F has measured chromatographic logP not below 3. Thanks!
y

Hello, I need to know if CON=C(C1=NOCCN1)c1ccccc1Oc1ncnc(Oc2ccc(OC(F)(F)F)cc2)c1F has measured chromatographic logP not below 3. Thanks!
y

The reported measurements were obtained from patent US6251899A.
